B1: scFv; the commonest letter at each place (parent)
chain 1: EVKLDETGGGLVQPGRPMKLSCVASGFTFSDYWMNWVRQSPEKGLEWVAQIRNKPYNYETYYSDSVKGRFTISRDDSKSSVYLQMNNLRVEDMGIYYCTGSYYGMDYWGQGTSVTVS
chain 2: DVVMTQTPLSLPVSLGDQASISCRSSQSLVHSNGNTYLRWYLQKPGQSPKVLIYKVSNRFSGVPDRFSGSGSGTDFTLKISRVEAEDLGVYFCSQSTHVPWTFGGGTKLEIK

# Variants of: B1
# TEST SUMMARY: yeast surface expression (ratio to wild type); higher = more expressed
# PROTOCOL CONDITIONS: format: scFv 4-4-20, heavy + light
Cut-off 0.8 on yeast surface expression, inclusive. At or above means class 1; below means class 0.

chain 1 M105P W108E G109W: class 0
chain 1 S30F N35T: class 0
chain 1 W36P: class 1
chain 1 Y103A: class 1
chain 1 N35K W36F: class 0
chain 1 W33Y M34I: class 0
chain 1 S30N W36C: class 0
chain 1 G100T Y102N: class 1
chain 1 Y107P W108A: class 0
chain 1 G100C Y107S: class 0
chain 1 Y103W M105T: class 1
chain 1 G100Q: class 0
chain 1 D31Y W33R: class 0
chain 1 F29W W33S: class 0
chain 1 G100E M105D: class 0
chain 1 Y107W: class 1
chain 1 Y32V V37I: class 1
chain 1 Y107L: class 1
chain 1 M105C G109V: class 0
chain 1 F29I N35I: class 0
chain 1 D31K W33I M34N: class 0
chain 1 M34I N35Y V37Y: class 0
chain 1 M34C N35L V37F: class 0
chain 1 D31M Y32V: class 0
chain 1 F29W D31H: class 0
chain 1 Y32G W36H: class 0
chain 1 W108H G109C: class 0
chain 1 D31T M34E: class 0
chain 1 F29I W36L: class 0
chain 1 Y32D M34Y: class 0
chain 1 S101C G104V D106F: class 0
chain 1 S30A W33N: class 1
chain 1 S30N N35W: class 0
chain 1 G104V Y107I: class 0
chain 1 W33H V37F: class 1
chain 1 G100F S101M: class 0
chain 1 Y103R Y107F: class 1
chain 1 M105Q D106Q: class 1
chain 1 M105Q Y107E W108T: class 0
chain 1 D31V W36G: class 1
chain 1 Y102L D106G: class 0
chain 1 S30N W33D: class 1
chain 1 Y107F G109E: class 0
chain 1 T28W N35H: class 0
chain 1 S101Y G104C: class 0
chain 1 N35S V37L: class 1
chain 1 F29E M34E: class 0
chain 1 S30W N35V: class 0
chain 1 G100H: class 0
chain 1 M105R W108L: class 0
chain 1 D31R M34S: class 0
chain 1 T28S S30M: class 1
chain 1 F29S N35R: class 1
chain 1 T28W V37C: class 0
chain 1 S101Y D106K: class 0
chain 1 D31A W33I: class 1
chain 1 M105Y G109S: class 1
chain 1 M34P N35R: class 1
chain 1 F29A V37I: class 1
chain 1 Y32E N35S: class 1
chain 1 N35S: class 1
chain 1 F29D W33Y: class 0
chain 1 W108S G109N: class 0
chain 1 Y32W V37S: class 0
chain 1 S30F N35H: class 0
chain 1 S30R M34S: class 0
chain 1 S101H W108Y: class 0
chain 1 M34I N35W: class 0
chain 1 F29G D31Y: class 0
chain 1 S101W G109V: class 0
chain 1 S30Y W36A: class 0
chain 1 Y32C: class 1
